Study Target: full length USP7 (Homo sapiens (Human))
Sequence (Q93009 whole entry): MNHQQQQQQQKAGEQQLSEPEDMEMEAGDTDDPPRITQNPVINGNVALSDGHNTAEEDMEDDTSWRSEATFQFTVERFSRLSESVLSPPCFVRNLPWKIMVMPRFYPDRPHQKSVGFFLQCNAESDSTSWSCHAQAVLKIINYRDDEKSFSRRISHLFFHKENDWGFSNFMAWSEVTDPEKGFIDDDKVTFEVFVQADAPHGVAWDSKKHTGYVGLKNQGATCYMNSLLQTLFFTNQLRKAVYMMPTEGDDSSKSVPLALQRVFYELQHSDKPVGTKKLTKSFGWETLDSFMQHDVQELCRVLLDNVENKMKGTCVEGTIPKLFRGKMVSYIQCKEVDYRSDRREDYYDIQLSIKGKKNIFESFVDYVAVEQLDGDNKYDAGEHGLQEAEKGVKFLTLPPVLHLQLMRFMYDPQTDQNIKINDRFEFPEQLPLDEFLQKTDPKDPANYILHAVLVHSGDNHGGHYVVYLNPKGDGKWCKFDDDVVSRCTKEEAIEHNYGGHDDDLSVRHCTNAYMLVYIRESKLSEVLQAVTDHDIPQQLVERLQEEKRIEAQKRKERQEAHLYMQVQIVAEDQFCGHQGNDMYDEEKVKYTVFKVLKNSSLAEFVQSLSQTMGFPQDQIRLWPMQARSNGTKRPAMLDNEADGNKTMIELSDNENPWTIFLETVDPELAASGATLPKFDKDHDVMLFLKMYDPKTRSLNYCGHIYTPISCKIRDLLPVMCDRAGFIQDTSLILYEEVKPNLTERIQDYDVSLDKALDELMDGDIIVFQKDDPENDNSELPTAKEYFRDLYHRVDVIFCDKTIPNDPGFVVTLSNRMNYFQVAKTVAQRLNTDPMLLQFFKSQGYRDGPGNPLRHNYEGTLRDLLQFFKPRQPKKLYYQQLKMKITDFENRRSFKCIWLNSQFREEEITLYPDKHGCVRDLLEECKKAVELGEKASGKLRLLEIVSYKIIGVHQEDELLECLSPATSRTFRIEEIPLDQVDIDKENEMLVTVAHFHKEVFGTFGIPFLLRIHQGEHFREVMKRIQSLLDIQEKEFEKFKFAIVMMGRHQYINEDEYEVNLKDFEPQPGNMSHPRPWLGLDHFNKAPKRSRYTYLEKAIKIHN
Procedure Details: Ub-AMC enzymatic assay with full-length USP7
Type: biochemical
Settings: Table 3; 6 hours pre-incubation, Ub-AMC; read-out: IC50 (μM), USP7 activity in USP7 assay
Record form. Attribute: IC50. Fill in for each entry.

Here are 5 compounds together with their reported answers.
O=C(CCN1CCOCC1)Nc1ccc2c(=O)n(CC3(O)CCN(C(=O)C(CCCNC(=O)c4ccc5c(Cl)c6c(nc5c4)CCCC6)Cc4ccc(F)cc4F)CC3)cnc2c1 (stereo not drawn) | 0.02 to 0.1 µM
Cc1cc(Cl)c2ccc(C(=O)NCCCC(Cc3ccccc3)C(=O)N3CCC(O)(Cn4cnc5cc(NC(=O)CCN6CCOCC6)ccc5c4=O)CC3)cc2n1 (stereo not drawn) | > 1 µM
CN1CCN(CCC(=O)Nc2ccc3c(=O)n(CC4(O)CCN(C(=O)C(CCCNC(=O)c5ccc6c(Cl)cc(-c7ccc(F)cc7)nc6c5)Cc5ccccc5)CC4)cnc3c2)CC1 (stereo not drawn) | 0.02 to 0.1 µM
O=C(CCN1CCOCC1)Nc1ccc2c(=O)n(CC3(O)CCN(C(=O)[C@H](Cc4ccccc4)n4ccnn4)CC3)cnc2c1 | > 1 µM
CN1CCN(CCC(=O)Nc2ccc3c(=O)n(CC4(O)CCN(C(=O)C(CCCNC(=O)c5ccc6c(Cl)cc(-c7cscn7)nc6c5)Cc5ccccc5)CC4)cnc3c2)CC1 (stereo not drawn) | 0.02 to 0.1 µM

State recorded IC50 for all listed compounds.
1. CN1CCN(c2cccc3c(=O)n(CC4(O)CCN(C(=O)[C@@H](CCCNC(=O)c5ccc6c(Cl)c7c(nc6c5)CCCC7)Cc5ccccc5)CC4)cnc23)CC1
2. O=C(CCN1CCOCC1)Nc1ccc2c(=O)n(CC3(O)CCN(C(=O)[C@H](Cc4ccccc4)NC(=O)COc4ccc5c(Cl)c6c(nc5c4)CCCC6)CC3)cnc2c1
3. CN1CCN(CCC(=O)Nc2ccc3c(=O)n(CC4(O)CCN(C(=O)[C@@H](Cc5ccccc5)NC(=O)CNC(=O)c5ccc6c(Cl)c7c(nc6c5)CCCC7)CC4)cnc3c2)CC1

Key:
1: 0.02 to 0.1 µM; 2: 0.1 to 1 µM; 3: 0.02 to 0.1 µM

Exercise: Notebook: pull reported IC50 for full length USP7 (Homo sapiens (Human)), entry COc1cccc(CC(CCCNC(=O)c2ccc3c(Cl)c4c(nc3c2)CCCC4)C(=O)N2CCC(O)(Cn3cnc4cc(NC(=O)CCN5CCN(C)CC5)ccc4c3=O)CC2)c1 (stereo not drawn)
Key: > 1 µM

* * *

Record form. Attribute: IC50. Fill in for each entry.
Study Target: UniProtKB Q93009
Procedure Details: Ub-AMC enzymatic assay with full-length USP7
Assay type: biochemical
Settings: Table 1; 6 hours pre-incubation, Ub-AMC; read-out: IC50 (nM), USP7 activity in USP7 assay

Here are 5 molecules together with their reported answers.
O=C(CCN1CCOCC1)Nc1ccc2c(=O)n(CC3(O)CCN(C(=O)[C@H](CC4CCCCC4)NC(=O)CNC(=O)c4ccc5c(Cl)c6c(nc5c4)CCCC6)CC3)cnc2c1 | < 20 nM
O=C(NCCC[C@@H](Cc1ccccc1)C(=O)N1CCC(O)(Cn2cnc3cc(N4CCOCC4)ccc3c2=O)CC1)c1ccc2c(Cl)c3c(nc2c1)CCCC3 | 100 to 1000 nM
O=C(CCN1CCOCC1)Nc1ccc2c(=O)n(CC3(O)CCN(C(=O)[C@H](Cc4c[nH]cn4)NC(=O)CNC(=O)c4ccc5c(Cl)c6c(nc5c4)CCCC6)CC3)cnc2c1 | < 20 nM
CN1CCN(CCC(=O)Nc2ccc3c(=O)n(CC4(O)CCN(C(=O)[C@H](CCCNC(=O)c5ccc6c(Cl)c7c(nc6c5)CCCC7)Cc5ccccc5)CC4)cnc3c2)CC1 [drawing 147] | 100 to 1000 nM
CN1CCN(CCC(=O)Nc2ccc3c(=O)n(CC4(O)CCN(C(=O)CCCCNC(=O)c5ccc6c(Cl)c7c(nc6c5)CCCC7)CC4)cnc3c2)CC1 [drawing 141] | 20 to 100 nM

State recorded IC50 for all listed molecules.
1. O=C(CCN1CCOCC1)Nc1ccc2c(=O)n(CC3(O)CCN(C(=O)[C@H](Cc4cscn4)NC(=O)CNC(=O)c4ccc5c(Cl)c6c(nc5c4)CCCC6)CC3)cnc2c1
2. CN1CCN(CCC(=O)Nc2ccc3c(=O)n(CC4(O)CCN(C(=O)C(CCCNC(=O)c5cc(C(=O)CCl)cn5C)Cc5ccccc5)CC4)cnc3c2)CC1 (stereo not shown)

Key:
< 20 nM
> 1000 nM
